Attribution: patent US20110177071A1

Hi there, I'd appreciate the recorded Binding Avidity (Relative to Orencia) for every entry that follows.
# subject_of_test: T1, human CD80-murine Ig fusion protein (human)
# T1 construct: Bought (Ancell #510-820); also called hCD80-mIg; human CD80-murine IgG
# T1 chain: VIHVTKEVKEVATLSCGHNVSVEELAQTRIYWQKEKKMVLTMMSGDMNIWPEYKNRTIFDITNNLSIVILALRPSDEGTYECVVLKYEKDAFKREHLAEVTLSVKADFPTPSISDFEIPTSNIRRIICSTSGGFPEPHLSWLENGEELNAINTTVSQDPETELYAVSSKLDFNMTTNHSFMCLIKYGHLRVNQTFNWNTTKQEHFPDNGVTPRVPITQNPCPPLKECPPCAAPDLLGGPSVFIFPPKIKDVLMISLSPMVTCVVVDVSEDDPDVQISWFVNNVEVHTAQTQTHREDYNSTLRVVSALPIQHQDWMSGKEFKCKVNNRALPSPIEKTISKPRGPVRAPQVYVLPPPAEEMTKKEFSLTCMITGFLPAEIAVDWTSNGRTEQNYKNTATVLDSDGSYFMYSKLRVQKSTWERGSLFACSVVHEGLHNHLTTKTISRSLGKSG
# assay_notes: SPR Biacore, hCD80-mIg captured

binder="D3-75-IgG2 (Fc fusion) MHVAQPAVVLASSRGIASFVCEYESPGKANEVRVTVLRQADSQVTEVCAMTYMKENELTFLDDPSCTGTFSGNQVNLTIQGLRAMDTGLYICKVELMYPPPYYLGIGNGTQIYVIDPEPCPDSDERKCCVECPPCPAPPVAGPSVFLFPPKPKDTLMISRTPEVTCVVVDVSHEDPEVQFNWYVDGVEVHNAKTKPREEQFNSTFRVVSVLTVVHQDWLNGKEYKCKVSNKGLPAPIEKTISKTKGQPREPQVYTLPPSREEMTKNQVSLTCLVKGFYPSDIAVEWESNGQPENNYKTTPPMLDSDGSFFLYSKLTVDKSRWQQGNVFSCSVMHEALHNHYTQKSLSLSPG" endpoint_value="> 2 fold"

Provide one value: measured Binding Avidity (Relative to Orencia) of D3-69-IgG2 (Fc fusion) MHVAQPAVVLASSRGIASFVCEYESPGKANEIRVTVLRQADSQVTEVCAMTYMKGDELTFLDDPSCTGTFSGNQVNLTIQGLRAMDTGLYICKVELMYPPPYYEGIGNGTQIYVIDPEPCPDSDERKCCVECPPCPAPPVAGPSVFLFPPKPKDTLMISRTPEVTCVVVDVSHEDPEVQFNWYVDGVEVHNAKTKPREEQFNSTFRVVSVLTVVHQDWLNGKEYKCKVSNKGLPAPIEKTISKTKGQPREPQVYTLPPSREEMTKNQVSLTCLVKGFYPSDIAVEWESNGQPENNYKTTPPMLDSDGSFFLYSKLTVDKSRWQQGNVFSCSVMHEALHNHYTQKSLSLSPG
> 2 fold
